Origin of values: the supplement of paper PMC12636428

- System: Saccharomyces cerevisiae
- assay_notes: transcriptional activation domain activity (GFP:mCherry ratio, weighted mean of sorted bins, harmonized to initial dataset scale) (arbitrary fluorescence ratio units); higher = stronger transcriptional activation
- protocol_conditions: beta-estradiol 1 µM; induction time 4 h
Please provide measured transcriptional activation domain activity for the entries that follow.
Numbers only.

Record excerpt, results attached:
>>> df
                            sequence_record  data_value
0  KSPVKRKPKAEGASADGSPKKRKSKGEAADADGTPKKRGRKPKKAEPQPEIQG       33700
1  IDHTDIHAHHADAHDDSFIESEEWLSKFIMDSQIDNDLKLNINHFNDIGFNNL      154000

Consider the following items and state reported transcriptional activation domain activity for each.
1. YFYMRLISCLGLIAHSPMLWATGHNSARHELIQKMDFFPKRIGYLLSRLCVLI
2. PFPLLPFPLLPFPLLPSPLPIPLLPIPLLSFPLLPFPFLPFPLLSYPLFHFTV
3. DINSFTNQQQQAQDNPSFLPLDIEQSSYDLSEDAMSYPIISTQSNRDCTQYDN
4. MYGLVFLLPLFCSLLLFLFCFCCLSPRPTWGLFVSIELFLQARDGLVNWLLAF
5. PLEKLMCLRTSLSLLSAAADKYMQENRLTVFHTSVASDDLILLLACALTQTHL
6. PDLSIYMVDAFVHVLITAGLRDSAAVLHERIMSEFLDRILLILRAAVRLNKII
7. KFIWRSSWSLPKIMYLLIRYLGLVCLLYYAMNAVTVQKSIAVCQLYIISMHTV

51600
44800
68700
50100
50200
62400
67000

---

Please provide measured transcriptional activation domain activity for the entries that follow.
- Test system: Saccharomyces cerevisiae
- assay_notes: transcriptional activation domain activity (GFP:mCherry ratio, weighted mean of sorted bins, harmonized to initial dataset scale) (arbitrary fluorescence ratio units); higher = stronger transcriptional activation
- protocol_conditions: beta-estradiol 1 µM; induction time 4 h

Record excerpt, results attached:
                            sequence_record  data_value
0  QARQSKEPAMSQKDLATKVNEKQSVINDYESGRAVPNQQVLSKLERALGVKLR       36800
1  PAHSLLELIQLMKRKAFVCWYLFTIVIVLLLLLWIFLSVNYFHCIKPINFNTD       34800
2  KKKRDNRREKPRKSRKGRSDDEIREGEEGESRRRKRKEGGGRARAATPQEENE       32800
3  VVLYMLRFLGLMHIMLFSHIDQRCKDFAKVYLRGRIIRYTCPFFSRSSLHKIV       49400
4  MNFFFCMRSWTLLCYPKTGLLFFILCFFSSALSILSPPPCIFFFFFFLSRVCC       45100

Consider the following items and state reported transcriptional activation domain activity for each.
1. MRTLHGLVYFFPFILYHRLVFLWLRVLALSRYVFLFSVCFPWSVLVTFVIFLY
2. QCAYVLEHCMDATPGIFNYIQLYYCSPVRPLVFVLLCAWLLFLFGFVGIAASD
3. WLAHSKKKTCDVCKHPYSFTKVYATDMPTRLPPVLLLRRVAQQSFFAMIFAVR
4. KIHIVNMAQVIVLCIHRFLYGIIPLFEISTCIYFPLLVSLWHITYILFYIVMF

1: 80100; 2: 23300; 3: 35900; 4: 55200
